src = ChEMBL document CHEMBL1125449

studyTarget: Kappa-type opioid receptor (Cavia porcellus, UniProt P41144)
Sequence (P41144 whole entry): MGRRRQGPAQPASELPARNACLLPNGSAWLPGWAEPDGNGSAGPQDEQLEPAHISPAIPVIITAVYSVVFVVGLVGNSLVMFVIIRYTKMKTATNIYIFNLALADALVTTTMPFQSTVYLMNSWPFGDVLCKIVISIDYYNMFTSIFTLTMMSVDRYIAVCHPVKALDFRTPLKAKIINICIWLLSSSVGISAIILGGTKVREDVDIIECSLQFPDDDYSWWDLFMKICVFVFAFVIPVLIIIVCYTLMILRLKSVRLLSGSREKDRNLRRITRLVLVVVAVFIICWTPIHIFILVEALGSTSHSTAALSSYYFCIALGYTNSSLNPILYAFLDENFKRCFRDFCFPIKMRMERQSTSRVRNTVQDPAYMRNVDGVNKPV
assayNotes: Compound was tested for the inhibition of [3H]- (U69,593) binding to opioid receptor kappa in guinea pig brain homogenates
Type: tissue-based
pKi: −log10 of the molar value. Positions of bridges follow the written chain, without caps; N, C: chain ends. Non-standard residues stand in square brackets, D forms with d. Residues, ends and D or L forms follow the SMILES beside them. Phe(4-tBu) = CC(C)(C)c1ccc(C[C@H](N)C(=O)O)cc1; Phe(3-F) = N[C@@H](Cc1cccc(F)c1)C(=O)O; mTyr = N[C@@H](Cc1cccc(O)c1)C(=O)O; Pen = CC(C)(S)[C@H](N)C(=O)O
propertyMeasured: pKi

*Q* Query pKi for CC(C)(C)c1ccc(C[C@@H]2NC(=O)[C@@H](NC(=O)[C@@H](N)Cc3ccc(O)cc3)CSSC(C)(C)[C@@H](C(=O)O)NC2=O)cc1 (H-YC[Phe(4-tBu)][Pen]-OH; disulfide 2-4)
*A* < 5.00

*Q* Query pKi for CC1(C)SSC[C@H](NC(=O)[C@@H](N)Cc2ccc(O)cc2)C(=O)N[C@@H](Cc2cccc(O)c2)C(=O)N[C@@H]1C(=O)O (H-YC[mTyr][Pen]-OH; disulfide 2-4)
*A* < 5.00

*Q* Query pKi for CC1(C)SSC[C@H](NC(=O)[C@@H](N)Cc2ccc(O)cc2)C(=O)N[C@@H](Cc2cccc(F)c2)C(=O)N[C@@H]1C(=O)O (H-YC[Phe(3-F)][Pen]-OH; disulfide 2-4)
*A* < 5.00
